Origin of the recorded values: the MegaScale stability set (Tsuboyama et al. 2023)

Would you kindly list folding stability dG for each of these variants?
B1: 1ZHC (parent)
chain: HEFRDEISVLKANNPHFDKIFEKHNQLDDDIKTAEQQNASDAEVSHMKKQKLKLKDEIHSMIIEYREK

- Variants of: B1
- method_notes: folding stability dG (cDNA display proteolysis); higher = more stable
- condition_parameters: PBS, room temperature
Give bare numbers, in kcal/mol.

| seq | value_units | measured |
| --- | --- | --- |
| HEFRSEISVLKANNPHFDKIFEKHNQLDDDIKTAEQQNASDAEVSHMKKQKLKLKDEIHSMIIEYREK | kcal/mol | 0.508 |

// input: 4 variants below; output: folding stability dG for each
1. HEFRDEISVLKANNPHFDKIFEKHNQLDDDIKTAEQQKASDAEVSHMKKQKLKLKDEIHSMIIEYREK
2. HEFRDEISVLKANNPHFDKIFEKHNQLDDDIKTAEQQNASDAEVSHMKKQKLKLKDEIHSMIILYREK
3. HEFRDEISTLKANNPHFDKIFEKHNQLDDDIKTAEQQNASDAEVSHMKKQKLKLKDEIHSMIIEYREK
4. HEFRDEISVLKANNPHFDKIFEKHNQLDDDIKTAEQQNASDAEVSHMKKQKLALKDEIHSMIIEYREK

[0.548, 0.829, 0.509, 1.12]

Give me folding stability dG for each of these variants, listed below.
1. HEFRDEISVLKANNPHFDKIFQKHNQLDDDIKTAEQQNASDAEVSHMKKQKLKLKDEIHSMIIEYREK
2. HEFRDEISVLKANNPHFDKIFEKHNQLDDDIKTAEQQNASDAEVSHMKKQKLKLKDEIHSMCIEYREK
3. HEFRDEISVLKANNPHFDKIFEKHNQLDDDIKTAEQQNFSDAEVSHMKKQKLKLKDEIHSMIIEYREK
4. HEFRDEISVIKANNPHFDKIFEKHNQLDDDIKTAEQQNASDAEVSHMKKQKLKLKDEIHSMIIEYREK
5. HEFRDEISVLKANNPHFDKIFEKHNQLDSDIKTAEQQNASDAEVSHMKKQKLKLKDEIHSMIIEYREK

[1.44, -0.713, 1.07, 0.415, 1.2]
